target: PDE1B (Homo sapiens, UniProt Q01064); construct: purchased Reaction Biology Corporation, Malvern, Pa; assay: Phosphodiesterase Enzyme Screening Assay, PDE1B (selectivity versus PDE9A2); format: biochemical; details: ratio of IC50 values; value greater than 1 indicates greater selectivity for PDE9A2
Sequence (Q01064 whole entry): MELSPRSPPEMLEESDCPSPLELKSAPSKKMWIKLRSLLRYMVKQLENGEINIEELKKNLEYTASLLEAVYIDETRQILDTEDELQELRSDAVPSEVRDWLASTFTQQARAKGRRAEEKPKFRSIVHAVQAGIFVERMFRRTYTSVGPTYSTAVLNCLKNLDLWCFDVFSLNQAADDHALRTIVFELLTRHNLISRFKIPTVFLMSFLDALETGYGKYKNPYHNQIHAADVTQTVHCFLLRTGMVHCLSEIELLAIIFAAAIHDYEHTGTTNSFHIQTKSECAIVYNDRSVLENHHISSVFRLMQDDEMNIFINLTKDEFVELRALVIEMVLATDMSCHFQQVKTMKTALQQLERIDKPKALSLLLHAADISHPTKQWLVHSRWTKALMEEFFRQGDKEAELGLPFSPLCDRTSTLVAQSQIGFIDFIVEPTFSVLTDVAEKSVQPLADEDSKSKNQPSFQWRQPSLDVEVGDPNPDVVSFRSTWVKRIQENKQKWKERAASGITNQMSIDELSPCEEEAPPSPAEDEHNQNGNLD
Record MET whenever PDE1B selectivity (versus PDE9A2) is at 300 or higher; record NOT MET when lower.

Solved cases (4 shown):
C[C@@H]1CN(Cc2cccc(C#N)c2)C[C@H]1c1nn2c(C3CCOCC3)ncc2c(=O)[nH]1 (single isomer, unassigned)	MET
CC1CN(Cc2ccccc2)CC1c1nn2c(C3CCCOC3)ncc2c(=O)[nH]1 (single isomer, unassigned) [2-((3,4-trans)-1-benzyl-4-methylpyrrolidin-3-yl)-7-(tetrahyd]	NOT MET
C[C@@H]1CN(Cc2ccccc2C#N)C[C@H]1c1nn2c(C3CCOCC3)ncc2c(=O)[nH]1 (single isomer, unassigned)	NOT MET
C[C@@H]1CN(Cc2ccc(C#N)cc2)C[C@H]1c1nn2c(C3CCOCC3)ncc2c(=O)[nH]1 (single isomer, unassigned)	MET

# input I'd appreciate it if you could say whether C[C@@H]1CN(Cc2cn3ncccc3n2)C[C@H]1c1nn2c(C3CCOCC3)ncc2c(=O)[nH]1 (single isomer, unassigned) [(+)-2-((3,4-trans)-1-(imidazo[1,2-b]pyridazin-2-ylmethyl)-4-] has PDE1B selectivity (versus PDE9A2) at least equal to 300.
# output MET

# input How about this compound: C[C@@H]1CN(Cc2ccc3ccccc3n2)C[C@H]1c1nn2c(C3CCOCC3)ncc2c(=O)[nH]1 (single isomer, unassigned) [(+)-2-((3,4-trans)-4-methyl-1-(quinolin-2-ylmethyl)pyrrolidi]
# output MET
